// provenance: ChEMBL document CHEMBL4033712

Test system: U-251
Test: Growth inhibition of human U251 cells incubated for 48 hrs by sulforhodamine B assay
Type: functional
Settings: U-251, 48 h, read-out: LC50 (the source's name)
endpoint_name: CC50 (µM)
Please state the figure in µM; there is no need to write the unit.

Previously resolved entries follow.
1. C=C1CC[C@@H]2[C@](C)(COC(C)=O)[C@H](OC(C)=O)CC[C@@]2(C)[C@H]1CC(Nc1ccc(S(=O)(=O)Nc2ccc(Cl)nn2)cc1)C1=CCOC1=O (stereo not given in full) | 5.52
2. C=C1CC[C@@H]2[C@](C)(COC(C)=O)[C@H](OC(C)=O)CC[C@@]2(C)[C@H]1CC(Nc1ccc(S(=O)(=O)Nc2cc(C)on2)cc1)C1=CCOC1=O (stereo not given in full) | 6.12
3. C=C1CC[C@@H]2[C@](C)(COC(C)=O)[C@H](OC(C)=O)CC[C@@]2(C)[C@H]1CC(Nc1ccc(S(=O)(=O)Nc2nccc(C)n2)cc1)C1=CCOC1=O (stereo not given in full) | 33.3
4. C=C1CC[C@@H]2[C@](C)(COC(C)=O)[C@H](OC(C)=O)CC[C@@]2(C)[C@H]1CC(Nc1ccc(S(=O)(=O)Nc2nccs2)cc1)C1=CCOC1=O (stereo not given in full) | 6.57

Then there is this compound:
QUERY: API: value(readout=CC50, system=U-251) for record C=C1CC[C@@H]2[C@](C)(COC(C)=O)[C@H](OC(C)=O)CC[C@@]2(C)[C@H]1CC(Nc1ccc(S(=O)(=O)Nc2ncccn2)cc1)C1=CCOC1=O (stereo not given in full)
RESULT: 6.17
